concentration of peptide that induces 20% of HLA-A2 expression by entry:
Biological target: T1, HLA-A*0201 molecule expressed on human T2 cells (human)
T1 construct: also called HLA-A2
Experiment: T2 cells (HLA-A*0201), peptide titration, anti-HLA-A2 flow cytometry
Protocol: T2 cells (5.104 cells per well) are incubated with decreasing concentrations of peptides from 100 μM to 0.1 μM (4 points: 100 μM, 10 μM, 1 μM, 0.1 μM) in serum-free medium (TexMacs) supplemented with […] of β2 Microglobulin at 37° C. for 16 hours. Cells are then washed two times and marked with the anti-HLA-A2 antibody coupled to PE (clone BB7.2, BD Pharmagen). The relative affinity is then determined as follows: […]
REPORTED PROPERTY: concentration of peptide that induces 20% of HLA-A2 expression (µM)

INSERT INTO results (binder, measure_unit, number) VALUES
  ('SLVGILHII [CD19-B11]', 'µM', 5.97),
  ('WVFEHPETL [CD22-H1]', 'µM', 1.97),
  ('YLFLGILSL [MS4A1-B5]', 'µM', 6.77),
  ('FMPGLLFGA [TNFRSF13C-B33]', 'µM', 13.2),
  ('FLAFVPLQL (also called CD37-B1i) [CD37-B1]', 'µM', 0.65),
  ('ILNSLSLLL [MS4A1-B41]', 'µM', 2.45),
  ('GMAFVPLLL (also called CD37-B11i) [CD37-B11]', 'µM', 2.3),
  ('YLAYLIFEL [CD19-B6]', 'µM', 3.76);
